Documented protein stability index across a set of sequences
test system: Saccharomyces cerevisiae; assay: protein stability index of tFT-peptide fusion (C-terminal peptide) (PSI (0-1 scale)); higher = more stable (slower turnover); conditions: genetic background: wild type; temperature: 30 C;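 further: PSI is a weighted mean of sequencing reads over stability bins, variants kept only with over 10 reads, mCherry proximal and sfGFP distal, peptide attached via GGGS linker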
OBSERVED_PROPERTY: protein stability index

{"SEQUENCE_INPUT": "VRRVRGSKFFWR", "OBSERVED_PROPERTY": "protein stability index", "RESULT_NUMBER": 0.609}
{"SEQUENCE_INPUT": "CFRRPLLRVVLT", "OBSERVED_PROPERTY": "protein stability index", "RESULT_NUMBER": 0.506}
{"SEQUENCE_INPUT": "WCAVRVWFGAAL", "OBSERVED_PROPERTY": "protein stability index", "RESULT_NUMBER": 0.505}
{"SEQUENCE_INPUT": "YFAQCLDFFSLV", "OBSERVED_PROPERTY": "protein stability index", "RESULT_NUMBER": 0.663}
{"SEQUENCE_INPUT": "FSLLFVRFCFFL", "OBSERVED_PROPERTY": "protein stability index", "RESULT_NUMBER": 0.305}
{"SEQUENCE_INPUT": "NKHDGRKWARYK", "OBSERVED_PROPERTY": "protein stability index", "RESULT_NUMBER": 0.649}
{"SEQUENCE_INPUT": "FVWAGVGCWSEA", "OBSERVED_PROPERTY": "protein stability index", "RESULT_NUMBER": 0.723}
{"SEQUENCE_INPUT": "GGRGVVVVQGAG", "OBSERVED_PROPERTY": "protein stability index", "RESULT_NUMBER": 0.698}
{"SEQUENCE_INPUT": "KKKKKEKNKIKI", "OBSERVED_PROPERTY": "protein stability index", "RESULT_NUMBER": 0.689}
{"SEQUENCE_INPUT": "PPPILFTEPPLA", "OBSERVED_PROPERTY": "protein stability index", "RESULT_NUMBER": 0.738}
